Measured values drawn from paper PMC11066976 for this set.

- ASSAYED_SYSTEM: transcobalamin 2 (TCN2) (Homo sapiens, UniProt P20062)
- Sequence (P20062 19-427): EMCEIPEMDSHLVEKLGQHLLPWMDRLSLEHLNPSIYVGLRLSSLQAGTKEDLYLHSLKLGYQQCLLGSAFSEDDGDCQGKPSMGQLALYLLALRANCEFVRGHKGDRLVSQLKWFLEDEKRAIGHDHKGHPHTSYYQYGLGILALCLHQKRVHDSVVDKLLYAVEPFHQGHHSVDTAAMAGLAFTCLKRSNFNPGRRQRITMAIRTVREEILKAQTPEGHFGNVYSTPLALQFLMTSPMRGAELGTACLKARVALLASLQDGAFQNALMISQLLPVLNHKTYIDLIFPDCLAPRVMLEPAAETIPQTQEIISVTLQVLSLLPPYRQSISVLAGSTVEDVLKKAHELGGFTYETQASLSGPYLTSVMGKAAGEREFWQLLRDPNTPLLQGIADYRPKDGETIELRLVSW
- TEST_METHOD_NOTES: compensated interferometric reader
- Assay type: binding
ENDPOINT: Kd (pM)
Give bare numbers, in pM.

Field Kd (entry CCCCCCCCCCCCC/C=C/[C@@H](O)[C@@H](N)CO ) reads 140
